- Tested on: HT-29
- ASSAY_REMARKS: Antiproliferative activity against human HT-29 cells assessed as reduction in cell number after 72 hrs by cell counter analysis
- Type: functional, cell-based
- EXPERIMENTAL_CONDITIONS: HT-29, 72 h
OBSERVED_PROPERTY: IC50 (nM)
Expressed in nM, but write only the number.

Please review the following examples before continuing.
>  <SMILES_STRUCTURE>
CC(C)=C(c1ccccc1)c1ccc(/C=C/C(=O)NO)cc1

>  <READING_UNIT>
nM

>  <IC50>
4120

$$$$
>  <SMILES_STRUCTURE>
COc1ccc(-c2ccc(/C=C/C(=O)NO)cc2)cc1

>  <READING_UNIT>
nM

>  <IC50>
1580

$$$$

Exercise: Quick one: IC50 of "Cc1[nH]c2ccccc2c1/C=C/c1ccccc1-c1ccc(/C=C/C(=O)NO)cc1" ?
Solution: 1370

The reported numbers originate from ChEMBL document CHEMBL3792283.
